Values were extracted from PubChem BioAssay (NCI).

Exercise: for every item that follows, state its recorded TGI.
Tested on: K-562 leukemia
Experiment: NCI tumour cell line growth inhibition, 48 h

Prompt: Data request, read-out TGI, for `CN(C)C(=O)N(CCCl)N=O`
Response: > 100 µM

Prompt: Fill in: TGI of `COc1ccc(-c2cc(=O)c3cc(C)cnc3[nH]2)cc1` is ___
Response: 8.29 µM

Prompt: Which TGI value belongs to `CCn1c2ccccc2c2nnc(NCCCO)nc21` ?
Response: > 100 µM

Prompt: Which TGI value is on record for `NC(=O)c1nnsc1N/N=C/c1ccc([N+](=O)[O-])cc1` ?
Response: > 100 µM

Prompt: Reported TGI, molecule `C[n+]1[se]c2ccccc2c1Cl` : ____
Response: > 70.7 µM

Prompt: Fill in the blank: the reported TGI of CN(C)C(=S)OC(Cn1cncn1)c1ccc(Cl)cc1Cl (configuration not stated) is ____.
Response: > 100 µM

Prompt: Requested read-out: TGI. Entry: `O=C(COc1ccc2c(=O)cc(-c3ccc(Cl)cc3)oc2c1)N1CCN(c2ccccc2)CC1`
Response: > 100 µM

Prompt: Any idea what its TGI is? The molecule is COc1ccc([As]=[As]c2ccc(OC)c(NCS(=O)(=O)O)c2)cc1NCS(=O)(=O)O (configuration not stated)
Response: 11.1 µM

Prompt: Need TGI of CC(C)CC(NC(=O)C(CSc1ccc([N+](=O)[O-])cc1)Cc1ccccc1)C(=O)Nc1ccccc1 (configuration not stated) , thanks.
Response: > 100 µM

Prompt: For the molecule `CN(C)C(=S)/N=C1\SC(=Nc2ccccc2)C(=Nc2ccccc2)N1c1ccc([N+](=O)[O-])cc1` , what TGI is on record?
Response: > 100 µM

Prompt: What value of TGI has been reported for the following molecule? CN(C)c1ccc(C2SCC(=O)N2c2nc3cc4sc(N5C(=O)CSC5c5ccc(N(C)C)cc5)nc4cc3s2)cc1 (configuration not stated)
Response: > 100 µM

Prompt: So what does the record say about TGI for `O=C(O)/C=C/C=C/c1ccc2c(c1)OCO2` ?
Response: > 100 µM
